- study system: Calcium and integrin-binding protein 1 (Homo sapiens) (UniProt Q99828)
- Sequence (Q99828 whole entry, looked up): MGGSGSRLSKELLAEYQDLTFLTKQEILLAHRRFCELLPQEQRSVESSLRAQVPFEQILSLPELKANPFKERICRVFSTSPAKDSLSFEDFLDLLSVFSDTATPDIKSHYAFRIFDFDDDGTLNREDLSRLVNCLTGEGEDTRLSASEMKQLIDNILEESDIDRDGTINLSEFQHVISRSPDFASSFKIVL
- procedure text: Primary qHTS for Identification of Calcium Integrin Binding Protein 1 (CIB1) Competitor (AID 1508620)
- experimental setup: CIB1-GST / FITC-alphaIIb peptide fluorescence polarization; series mostly up to 114 µM
Records with an inconclusive call do not appear. Calls of active or inactive are those of the source. Calls come from the whole dose curve; as a rule, active = well fitted inhibition curve with a large enough effect; inconclusive = small, poorly fitted or top-dose-only effect; inactive = flat fitted curve, though single readings scatter.
Labels: active, inactive

compound: Cc1nc(CCN(C)c2ncnc3ccc(-c4ccc5c(c4)OCO5)cc23)cs1
study system: Calcium and integrin-binding protein 1 (Homo sapiens) (UniProt Q99828)
category: inactive

compound: Cc1ccc(OCCn2c(CCNC(=O)C3CCCCC3)nc3ccccc32)cc1
study system: Calcium and integrin-binding protein 1 (Homo sapiens) (UniProt Q99828)
category: inactive

compound: O=C(Cc1ccc(Cl)c(Cl)c1)Nc1ccc([S+](=O)([O-])Nc2cccc([N+](=O)[O-])c2)cc1
study system: Calcium and integrin-binding protein 1 (Homo sapiens) (UniProt Q99828)
category: inactive

compound: Cc1cc(NS(=O)(=O)c2ccc(NC(=O)Cc3ccccc3)cc2)no1
study system: Calcium and integrin-binding protein 1 (Homo sapiens) (UniProt Q99828)
category: inactive

compound: Cc1cc(NS(=O)(=O)CCNC(=O)Cc2ccc(Cl)c(Cl)c2)no1
study system: Calcium and integrin-binding protein 1 (Homo sapiens) (UniProt Q99828)
category: inactive

compound: O=C(CNC(=O)c1ccccc1)OC(C(=O)Nc1cc([N+](=O)[O-])ccc1F)c1ccccc1 (configuration not stated)
study system: Calcium and integrin-binding protein 1 (Homo sapiens) (UniProt Q99828)
category: inactive

compound: Cc1cnc(-c2ccccc2C(C)O)nc1NCC1CCN(c2cccnc2)CC1 (configuration not stated)
study system: Calcium and integrin-binding protein 1 (Homo sapiens) (UniProt Q99828)
category: inactive

compound: CC1(C)OB(c2ccc(O)c3ncc(N4CCNCC4)cc23)OC1(C)C
study system: Calcium and integrin-binding protein 1 (Homo sapiens) (UniProt Q99828)
category: active

compound: Cc1ccc(C)c(SC2=NS(=O)(=O)c3ccccc32)c1
study system: Calcium and integrin-binding protein 1 (Homo sapiens) (UniProt Q99828)
category: inactive

compound: O=[S+]([O-])(Nc1ccc(-c2nc3ccccc3[nH]2)cc1)c1ccc2c(c1)OCO2
study system: Calcium and integrin-binding protein 1 (Homo sapiens) (UniProt Q99828)
category: inactive

compound: Cc1noc(C)c1-c1cccc(-c2nn3c(=O)cc(N4CCNCC4)nc3s2)c1
study system: Calcium and integrin-binding protein 1 (Homo sapiens) (UniProt Q99828)
category: inactive

compound: Cc1cc(NCc2ccc(-c3cccnc3)cc2)nc(-c2ccccc2C(C)C)n1
study system: Calcium and integrin-binding protein 1 (Homo sapiens) (UniProt Q99828)
category: inactive

compound: N#Cc1ccc(S(=O)(=O)N2CCN(S(=O)(=O)c3ccc4c(c3)OCCO4)CC2)cc1
study system: Calcium and integrin-binding protein 1 (Homo sapiens) (UniProt Q99828)
category: inactive

compound: COc1ccc(C2Nc3ccccc3C(=O)N2Cc2cccs2)cc1COc1c(C)cccc1C (configuration not stated)
study system: Calcium and integrin-binding protein 1 (Homo sapiens) (UniProt Q99828)
category: inactive

compound: Cc1ccc(OCCn2c(CCNC(=O)C3CCCC3)nc3ccccc32)cc1
study system: Calcium and integrin-binding protein 1 (Homo sapiens) (UniProt Q99828)
category: inactive

compound: Cc1ccc(NC(=O)c2cnn3c(-c4ccccc4)cc(C)nc23)cc1
study system: Calcium and integrin-binding protein 1 (Homo sapiens) (UniProt Q99828)
category: inactive

compound: O=C(Nc1ccc(Cl)c(S(=O)(=O)N2CCOCC2)c1)c1ccc(S(=O)(=O)N2CCOCC2)cc1
study system: Calcium and integrin-binding protein 1 (Homo sapiens) (UniProt Q99828)
category: inactive

compound: Cc1cc2c(s1)c1cnn(Cc3cccc(F)c3F)c(=O)c1n2C
study system: Calcium and integrin-binding protein 1 (Homo sapiens) (UniProt Q99828)
category: inactive

compound: CC1=C(C(=O)Nc2nnc(-c3ccccc3)s2)C(c2nn(C)cc2Cl)N=C(Nc2nc3ccccc3o2)N1 (configuration not stated)
study system: Calcium and integrin-binding protein 1 (Homo sapiens) (UniProt Q99828)
category: inactive

compound: CCC(=O)NC(c1cc(Cl)c2cccnc2c1O)C1CC1 (configuration not stated)
study system: Calcium and integrin-binding protein 1 (Homo sapiens) (UniProt Q99828)
category: inactive

compound: Cc1cc2c(s1)c1cnn(Cc3cccc(Cl)c3)c(=O)c1n2C
study system: Calcium and integrin-binding protein 1 (Homo sapiens) (UniProt Q99828)
category: inactive

compound: COc1cccc(S(=O)(=O)N2CCN(S(=O)(=O)c3ccc4c(c3)OCCO4)CC2)c1
study system: Calcium and integrin-binding protein 1 (Homo sapiens) (UniProt Q99828)
category: inactive

compound: COc1ccc(C2Nc3ccccc3C(=O)N2Cc2ccccc2)cc1COc1ccc(C(N)=O)cc1 (configuration not stated)
study system: Calcium and integrin-binding protein 1 (Homo sapiens) (UniProt Q99828)
category: inactive

compound: Cc1cc(C)nc(NC(=S)N2CCN(c3ccc(Cl)cc3[N+](=O)[O-])CC2)c1
study system: Calcium and integrin-binding protein 1 (Homo sapiens) (UniProt Q99828)
category: inactive

compound: COC(=O)C1CCN(C(=O)c2ccc3c(c2)ncn3-c2cccc(C)c2)CC1
study system: Calcium and integrin-binding protein 1 (Homo sapiens) (UniProt Q99828)
category: inactive

compound: Cc1c(Cl)cccc1NS(=O)(=O)c1cc2c(cc1F)NC(=O)CC2
study system: Calcium and integrin-binding protein 1 (Homo sapiens) (UniProt Q99828)
category: inactive

compound: COc1cccc(C2c3c(ncn(-c4ccncc4)c3=N)Oc3ccc4ccccc4c32)c1 (configuration not stated)
study system: Calcium and integrin-binding protein 1 (Homo sapiens) (UniProt Q99828)
category: inactive

compound: Nc1cc(NC(=O)Nc2nnc(-c3ccncc3)s2)ccc1Cl
study system: Calcium and integrin-binding protein 1 (Homo sapiens) (UniProt Q99828)
category: inactive

compound: Cc1cccc(Cn2ncc3c4sc(C)cc4n(C)c3c2=O)c1
study system: Calcium and integrin-binding protein 1 (Homo sapiens) (UniProt Q99828)
category: inactive

compound: O=[S+]([O-])(c1cc2ccccc2o1)N1CCN([S+](=O)([O-])c2c(F)cccc2F)CC1
study system: Calcium and integrin-binding protein 1 (Homo sapiens) (UniProt Q99828)
category: inactive

compound: CCOC(=O)c1cccc(-n2cccc2/C=C2\NC(=O)N(CC(=O)O)C2=O)c1
study system: Calcium and integrin-binding protein 1 (Homo sapiens) (UniProt Q99828)
category: inactive

compound: CCN(CC)c1ccc(NC(=O)CN(C)Cc2c(O)ccc3ccccc23)cc1
study system: Calcium and integrin-binding protein 1 (Homo sapiens) (UniProt Q99828)
category: inactive

compound: Cc1ccc(OCCn2c(CCNC(=O)c3c(F)cccc3F)nc3ccccc32)cc1
study system: Calcium and integrin-binding protein 1 (Homo sapiens) (UniProt Q99828)
category: inactive

compound: CCCn1c(C)nc2c(NCCN3CCCCC3)nc(C)nc21
study system: Calcium and integrin-binding protein 1 (Homo sapiens) (UniProt Q99828)
category: inactive

compound: Cc1ccc(-c2nccc(=O)n2CC(=O)NCCc2ccccc2)cc1
study system: Calcium and integrin-binding protein 1 (Homo sapiens) (UniProt Q99828)
category: inactive

compound: c1ccc(OCc2nnc3n2N=C(c2ccccc2)CS3)cc1
study system: Calcium and integrin-binding protein 1 (Homo sapiens) (UniProt Q99828)
category: inactive

compound: Cc1ccc(N2CCN(S(=O)(=O)c3ccc4c(c3)CC(=O)N4)CC2)cc1
study system: Calcium and integrin-binding protein 1 (Homo sapiens) (UniProt Q99828)
category: inactive

compound: Nc1ccc2c(c1)S(=O)(=O)NC2=O
study system: Calcium and integrin-binding protein 1 (Homo sapiens) (UniProt Q99828)
category: inactive

compound: Cc1ccc(-c2ccc(=O)n(CC(=O)N(C)C3CCCCCC3)n2)cc1
study system: Calcium and integrin-binding protein 1 (Homo sapiens) (UniProt Q99828)
category: inactive

compound: COc1cc(Nc2nc(-c3ccncc3)nc3ccccc23)ccc1NS(C)(=O)=O
study system: Calcium and integrin-binding protein 1 (Homo sapiens) (UniProt Q99828)
category: inactive

compound: O=C(Nc1ccccc1)Nc1nnc(-c2ccncc2)s1
study system: Calcium and integrin-binding protein 1 (Homo sapiens) (UniProt Q99828)
category: inactive

compound: Cc1ccc2nc3sc(C(=O)N4CCCCC4)cc3cc2c1
study system: Calcium and integrin-binding protein 1 (Homo sapiens) (UniProt Q99828)
category: inactive

---

- procedure text: HPAF-II Cancer Cell Toxicity qHTS against the NCATS CANVASS Library (AID 1347346); note: nearly all actives have a fitted effect of over 55% in size
- experimental setup: HPAF-II viability, CellTiter-Glo ATP luminescence, 72 h; series mostly up to 38.3 µM
Records with an inconclusive call do not appear. Active and inactive are the calls of the source. Calls come from the whole dose curve; as a rule, active = well fitted cell-killing curve with a large enough effect; inconclusive = small, poorly fitted or top-dose-only effect; inactive = flat fitted curve, though single readings scatter.
Labels: TRUE (active), FALSE (inactive)

compound: CCC(=O)N[C@@H](C[C@H](C)C(Cl)(Cl)Cl)C(=O)N1C(=O)C=C(OC)[C@@H]1C[C@H](C)CCl
category: TRUE
--
compound: CCC(=O)CCCCC[C@@H]1NC(=O)[C@H]2CCCCN2C(=O)[C@H](C(C)C)NC(=O)[C@H](Cc2cn(OC)c3ccccc23)NC1=O
category: TRUE
--
compound: C=CC(CCCCC)C1C(=O)NC(=O)C1C(=O)C1C(/C=C/C)C=CC2CC(C(=O)O)CC(C)C21 (stereo not given)
category: TRUE
--
compound: CCC(C)=C1OC(=O)[C@H](C)[C@H](O)[C@H](Cc2cccnc2)NC(=O)C(NC(=O)c2ncccc2O)C(C)OC1=O (stereo not given in full)
category: FALSE
--
compound: C/C(=C\[C@@H](C)CC/C=C/CC/C=C/C(=O)O)[C@H](O)[C@H](C)C(=O)CCCC1CC(=O)NC(=O)C1
category: TRUE
